- ASSAY_METHOD_TEXT: In vivo body distribution and pharmacokinetics after oral administration
- Design: species or system Kunming mice
- MEASUREMENT_PARAMETERS: male, Kunming, mouse, spleen, po, 30 mg/kg; mice, oral 30 mg/kg calculated as CPT
ATTRIBUTE_MEASURED: Cmax (nM)
Quick note: give the figure in nM, leave out the unit.

Prompt: Fill in the blank: the reported Cmax of `CC[C@@]1(O)C(=O)OCc2c1cc1n(c2=O)Cc2cc3ccccc3nc2-1` is ____.
Response: 1530

###

- ASSAY_METHOD_TEXT: In vivo body distribution and pharmacokinetics after oral administration
- Set-up: species or system Kunming mice
- MEASUREMENT_PARAMETERS: male, Kunming, mouse, heart, po, 30 mg/kg; mice, oral 30 mg/kg calculated as CPT
ATTRIBUTE_MEASURED: Cmax (nM)
Quick note: give the figure in nM, leave out the unit.

Prompt: Fill in the blank: the reported Cmax of `CC[C@@]1(O)C(=O)OCc2c1cc1n(c2=O)Cc2cc3ccccc3nc2-1` is ____.
Response: 954
